Value source: ChEMBL document CHEMBL4000156

- assayed.target: Xanthine dehydrogenase/oxidase (Homo sapiens, UniProt P47989)
- Sequence (P47989 whole entry): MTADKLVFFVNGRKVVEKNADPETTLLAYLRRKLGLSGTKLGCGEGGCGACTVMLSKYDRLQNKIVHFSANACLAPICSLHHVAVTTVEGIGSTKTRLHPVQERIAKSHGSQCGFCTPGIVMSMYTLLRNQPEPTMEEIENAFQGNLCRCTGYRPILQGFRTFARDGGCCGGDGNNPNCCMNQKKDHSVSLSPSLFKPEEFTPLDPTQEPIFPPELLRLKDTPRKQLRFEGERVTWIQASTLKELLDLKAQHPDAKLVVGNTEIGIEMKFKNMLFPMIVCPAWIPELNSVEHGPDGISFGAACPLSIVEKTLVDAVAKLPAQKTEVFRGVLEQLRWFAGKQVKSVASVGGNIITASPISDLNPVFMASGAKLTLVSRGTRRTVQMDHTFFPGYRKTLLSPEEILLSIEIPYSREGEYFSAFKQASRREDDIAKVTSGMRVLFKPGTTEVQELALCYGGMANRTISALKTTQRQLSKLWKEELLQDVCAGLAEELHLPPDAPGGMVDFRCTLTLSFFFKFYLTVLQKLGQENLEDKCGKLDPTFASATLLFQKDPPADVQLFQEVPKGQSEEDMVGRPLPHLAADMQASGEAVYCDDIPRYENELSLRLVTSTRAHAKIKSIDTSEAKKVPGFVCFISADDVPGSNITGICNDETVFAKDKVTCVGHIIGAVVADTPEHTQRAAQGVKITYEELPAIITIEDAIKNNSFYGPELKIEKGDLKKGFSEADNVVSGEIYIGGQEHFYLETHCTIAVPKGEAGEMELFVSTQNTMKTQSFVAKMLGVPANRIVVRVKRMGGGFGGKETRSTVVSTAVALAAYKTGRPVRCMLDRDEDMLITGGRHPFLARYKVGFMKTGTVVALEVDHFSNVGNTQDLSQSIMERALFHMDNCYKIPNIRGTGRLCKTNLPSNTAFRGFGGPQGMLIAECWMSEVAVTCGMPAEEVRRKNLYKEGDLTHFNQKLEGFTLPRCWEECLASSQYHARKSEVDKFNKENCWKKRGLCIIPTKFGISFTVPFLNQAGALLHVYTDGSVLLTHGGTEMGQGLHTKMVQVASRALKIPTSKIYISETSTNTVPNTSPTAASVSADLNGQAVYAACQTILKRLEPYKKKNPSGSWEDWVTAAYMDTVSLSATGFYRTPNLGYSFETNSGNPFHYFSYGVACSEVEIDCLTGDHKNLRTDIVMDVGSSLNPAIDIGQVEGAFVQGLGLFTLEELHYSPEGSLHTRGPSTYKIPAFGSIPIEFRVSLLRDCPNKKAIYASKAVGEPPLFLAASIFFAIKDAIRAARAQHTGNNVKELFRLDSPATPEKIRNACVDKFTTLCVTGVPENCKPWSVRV
endpoint.label: pIC50
# reply with the number alone; pIC50 is -log10 of concentration in mol/L

In plain terms, O=C(/C=C/c1ccc(O)c2oc(-c3ccc(O)c(O)c3)cc12)O[C@H](Cc1ccc(O)c(O)c1)C(=O)O has a documented pIC50 of 5.08

----------
Listed below: Activity values for each entry.
- Test system: RAW264.7
- measurement.description: Antioxidant activity in LPS induced mouse RAW264.7 cells assessed as superoxide anion scavenging activity at 10 uM after 24 hrs by HE probe based HPLC-MS analysis relative to control
- Type: functional
Enter your answer as a number in %; do not include the unit.

The examples below pair each entry with its known result.
[[record]]
record_smiles = "COC(=O)[C@H](C)NC(=O)/C=C/c1ccc(O)c2oc(-c3ccc(O)c(O)c3)cc12"
val = 60.54

[[record]]
record_smiles = "O=C(/C=C/c1ccc(O)c2oc(-c3ccc(O)c(O)c3)cc12)O[C@H](Cc1ccc(O)c(O)c1)C(=O)O"
val = 37.82

[[record]]
record_smiles = "C[C@H](NC(=O)/C=C/c1ccc(O)c2oc(-c3ccc(O)c(O)c3)cc12)C(=O)O"
val = 41.65

[[record]]
record_smiles = "COC(=O)[C@@H](Cc1ccc(O)c(O)c1)NC(=O)/C=C/c1ccc(O)c2oc(-c3ccc(O)c(O)c3)cc12"
val = 74.16

[[record]]
record_smiles = "O=C(/C=C/c1ccc(O)c2oc(-c3ccc(O)c(O)c3)cc12)N[C@@H](Cc1ccc(O)cc1)C(=O)O"
val = 83.41

[[record]]
record_smiles = "O=C(/C=C/c1ccc(O)c2oc(-c3ccc(O)c(O)c3)cc12)N[C@H](Cc1ccc(O)c(O)c1)C(=O)O"
val = 80.81

[[record]]
record_smiles = "COC(=O)[C@H](Cc1ccc(O)c(O)c1)NC(=O)/C=C/c1ccc(O)c2oc(-c3ccc(O)c(O)c3)cc12"
val = 78.59


Value of measured Activity for the entry O=C(/C=C/c1ccc(O)c2oc(-c3ccc(O)c(O)c3)cc12)N[C@@H](Cc1ccccc1)C(=O)O : 81.27

----------
- measurement.description: Antioxidant activity assessed as DPPH radical scavenging activity incubated for 30 mins under dark conditions by spectrophotometry
- Assay type: functional
pIC50: −log10 of the molar value.
pIC50 listing for selected compounds.

Consider the following illustrative entries.
[[record]]
record_smiles = "O=C(/C=C/c1ccc(O)c2oc(-c3ccc(O)c(O)c3)cc12)O[C@H](Cc1ccc(O)c(O)c1)C(=O)O"
endpoint_label = "pIC50"
val = 5.16

[[record]]
record_smiles = "COC(=O)[C@@H](Cc1c[nH]c2ccccc12)NC(=O)/C=C/c1ccc(OC)c2oc(-c3ccc(OC)c(OC)c3)cc12"
endpoint_label = "pIC50"
val = "< 4.00"

[[record]]
record_smiles = "COC(=O)[C@H](Cc1ccccc1)NC(=O)/C=C/c1ccc(OC)c2oc(-c3ccc(OC)c(OC)c3)cc12"
endpoint_label = "pIC50"
val = "< 4.00"


Then there is this compound:
// sample COC(=O)[C@H](C)NC(=O)/C=C/c1ccc(OC)c2oc(-c3ccc(OC)c(OC)c3)cc12 , its pIC50 was < 4.00
